Entry source: ChEMBL document CHEMBL3272327

- System: Rattus norvegicus
- assay: Uterotrophic activity in ovariectomized Sprague-Dawley rat assessed as uterine weight administered for 3 days (reference value: 100 +/- 27%)
- Assay type: organism-based, Uterus
- measurement-setup: in vivo, 72 h
# Activity per record follows
readout-type: Activity (%)

{"structure-as-smiles": "COc1ccc(OCC(=O)COc2ccc(OC)cc2)cc1", "readout-type": "Activity", "numeric-result": 70}
{"structure-as-smiles": "Cc1ccc(OCC(=O)COc2ccc(C)cc2)cc1", "readout-type": "Activity", "numeric-result": 82}
{"structure-as-smiles": "O=C(COc1ccc(Cl)cc1)COc1ccc(Cl)cc1", "readout-type": "Activity", "numeric-result": 48}
{"structure-as-smiles": "O=C(CSc1ccc(Cl)cc1)CSc1ccc(Cl)cc1", "readout-type": "Activity", "numeric-result": 86}
{"structure-as-smiles": "C#C[C@]1(O)CC[C@H]2[C@@H]3CCc4cc(O)ccc4[C@H]3CC[C@@]21C", "readout-type": "Activity", "numeric-result": 231}
{"structure-as-smiles": "CCc1ccc(OCC(=O)COc2ccc(CC)cc2)cc1", "readout-type": "Activity", "numeric-result": 62}
{"structure-as-smiles": "Cc1cc(Cl)c(OCC(=O)COc2cc(C)c(C)cc2Cl)cc1C", "readout-type": "Activity", "numeric-result": 56}
{"structure-as-smiles": "Cc1cc(OCC(=O)COc2cc(C)c(Cl)c(C)c2)cc(C)c1Cl", "readout-type": "Activity", "numeric-result": 83}

---

# Activity per record follows
- Test system: Rattus norvegicus
- assay: Effect on liver weight in rat at 10 mg/kg/day administered for 16 days measured 24 hrs after last drug dosage relative to total body weight (reference value: 4.54 +/- 0.29%)
- Assay type: ADME, organism-based
- measurement-setup: in vivo
readout-type: Activity (%)

{"structure-as-smiles": "O=C(CSc1ccc(Cl)cc1)CSc1ccc(Cl)cc1", "endpoint-unit": "%", "numeric-result": 4.53}
{"structure-as-smiles": "Cc1cc(Cl)c(OCC(=O)COc2cc(C)c(C)cc2Cl)cc1C", "endpoint-unit": "%", "numeric-result": 4.8}
{"structure-as-smiles": "COc1ccc(OCC(=O)COc2ccc(OC)cc2)cc1", "endpoint-unit": "%", "numeric-result": 4.73}
{"structure-as-smiles": "Cc1cc(OCC(=O)COc2cc(C)c(Cl)c(C)c2)cc(C)c1Cl", "endpoint-unit": "%", "numeric-result": 4.66}
{"structure-as-smiles": "CCc1ccc(OCC(=O)COc2ccc(CC)cc2)cc1", "endpoint-unit": "%", "numeric-result": 4.28}
{"structure-as-smiles": "O=C(COc1ccccc1Cl)COc1ccccc1Cl", "endpoint-unit": "%", "numeric-result": 4.66}
{"structure-as-smiles": "O=C(COc1ccc(Cl)cc1)COc1ccc(Cl)cc1", "endpoint-unit": "%", "numeric-result": 4.51}

---

# Activity per record follows
- System: Rattus norvegicus
- assay: Effect on vesicular gland weight in rat at 10 mg/kg/day administered for 16 days measured 24 hrs after last drug dosage relative to total body weight (reference value: 0.11 +/- 0.04%)
- Assay type: ADME, organism-based
- measurement-setup: in vivo
readout-type: Activity (%)

{"structure-as-smiles": "O=C(COc1ccc(Cl)cc1)COc1ccc(Cl)cc1", "numeric-result": 0.14}
{"structure-as-smiles": "O=C(COc1ccccc1Cl)COc1ccccc1Cl", "numeric-result": 0.23}
{"structure-as-smiles": "Cc1cc(OCC(=O)COc2cc(C)c(Cl)c(C)c2)cc(C)c1Cl", "numeric-result": 0.1}
{"structure-as-smiles": "COc1ccc(OCC(=O)COc2ccc(OC)cc2)cc1", "numeric-result": 0.11}
{"structure-as-smiles": "O=C(CSc1ccc(Cl)cc1)CSc1ccc(Cl)cc1", "numeric-result": 0.12}
{"structure-as-smiles": "CCc1ccc(OCC(=O)COc2ccc(CC)cc2)cc1", "numeric-result": 0.15}
{"structure-as-smiles": "Cc1cc(Cl)c(OCC(=O)COc2cc(C)c(C)cc2Cl)cc1C", "numeric-result": 0.16}

---

- Test system: Rattus norvegicus
- assay: Effect on kidney weight in rat at 10 mg/kg/day administered for 16 days measured 24 hrs after last drug dosage relative to total body weight (reference value: 0.96 +/- 0.08%)
- Type: ADME, organism-based
- measurement-setup: in vivo
# Activity per record follows

{"structure-as-smiles": "COc1ccc(OCC(=O)COc2ccc(OC)cc2)cc1", "measured-on": "Rattus norvegicus", "Activity / %": 1.04}
{"structure-as-smiles": "O=C(COc1ccc(Cl)cc1)COc1ccc(Cl)cc1", "measured-on": "Rattus norvegicus", "Activity / %": 0.86}
{"structure-as-smiles": "Cc1cc(OCC(=O)COc2cc(C)c(Cl)c(C)c2)cc(C)c1Cl", "measured-on": "Rattus norvegicus", "Activity / %": 1.02}
{"structure-as-smiles": "O=C(COc1ccccc1Cl)COc1ccccc1Cl", "measured-on": "Rattus norvegicus", "Activity / %": 1.02}
{"structure-as-smiles": "O=C(CSc1ccc(Cl)cc1)CSc1ccc(Cl)cc1", "measured-on": "Rattus norvegicus", "Activity / %": 0.94}
{"structure-as-smiles": "Cc1cc(Cl)c(OCC(=O)COc2cc(C)c(C)cc2Cl)cc1C", "measured-on": "Rattus norvegicus", "Activity / %": 1.06}
{"structure-as-smiles": "CCc1ccc(OCC(=O)COc2ccc(CC)cc2)cc1", "measured-on": "Rattus norvegicus", "Activity / %": 0.87}

---

- Test system: Rattus norvegicus
- assay: Effect on testes weight in rat at 10 mg/kg/day administered for 16 days measured 24 hrs after last drug dosage relative to total body weight (reference value: 1.10 +/- 0.17%)
- Assay type: ADME, organism-based, Testis
- measurement-setup: in vivo
readout-type: Activity (%)

{"structure-as-smiles": "Cc1cc(OCC(=O)COc2cc(C)c(Cl)c(C)c2)cc(C)c1Cl", "numeric-result": 0.91}
{"structure-as-smiles": "Cc1cc(Cl)c(OCC(=O)COc2cc(C)c(C)cc2Cl)cc1C", "numeric-result": 1.24}
{"structure-as-smiles": "O=C(CSc1ccc(Cl)cc1)CSc1ccc(Cl)cc1", "numeric-result": 1.13}
{"structure-as-smiles": "COc1ccc(OCC(=O)COc2ccc(OC)cc2)cc1", "numeric-result": 1.22}
{"structure-as-smiles": "O=C(COc1ccccc1Cl)COc1ccccc1Cl", "numeric-result": 1.21}
{"structure-as-smiles": "O=C(COc1ccc(Cl)cc1)COc1ccc(Cl)cc1", "numeric-result": 1.23}
{"structure-as-smiles": "CCc1ccc(OCC(=O)COc2ccc(CC)cc2)cc1", "numeric-result": 1.14}

---

- Tested on: Rattus norvegicus
- assay: Effect on epididymis and vas deferens weight in rat at 10 mg/kg/day administered for 16 days measured 24 hrs after last drug dosage relative to total body weight (reference value: 0.24 +/- 0.07%)
- Format: ADME, organism-based
- measurement-setup: in vivo
readout-type: Activity (%)

{"structure-as-smiles": "Cc1cc(OCC(=O)COc2cc(C)c(Cl)c(C)c2)cc(C)c1Cl", "readout-type": "Activity", "endpoint-unit": "%", "numeric-result": 0.27}
{"structure-as-smiles": "O=C(CSc1ccc(Cl)cc1)CSc1ccc(Cl)cc1", "readout-type": "Activity", "endpoint-unit": "%", "numeric-result": 0.25}
{"structure-as-smiles": "CCc1ccc(OCC(=O)COc2ccc(CC)cc2)cc1", "readout-type": "Activity", "endpoint-unit": "%", "numeric-result": 0.27}
{"structure-as-smiles": "COc1ccc(OCC(=O)COc2ccc(OC)cc2)cc1", "readout-type": "Activity", "endpoint-unit": "%", "numeric-result": 0.22}
{"structure-as-smiles": "O=C(COc1ccc(Cl)cc1)COc1ccc(Cl)cc1", "readout-type": "Activity", "endpoint-unit": "%", "numeric-result": 0.26}
{"structure-as-smiles": "O=C(COc1ccccc1Cl)COc1ccccc1Cl", "readout-type": "Activity", "endpoint-unit": "%", "numeric-result": 0.27}
{"structure-as-smiles": "Cc1cc(Cl)c(OCC(=O)COc2cc(C)c(C)cc2Cl)cc1C", "readout-type": "Activity", "endpoint-unit": "%", "numeric-result": 0.27}

---

- assay: Toxicity in ip dosed CF1 mouse assessed as animal death
- Assay type: organism-based
- measurement-setup: in vivo

{"structure-as-smiles": "Cc1ccc(OCC(=O)COc2ccc(C)cc2)cc1", "LD50": "1500 mg/kg"}
{"structure-as-smiles": "O=C(COc1ccc(Cl)cc1)COc1ccc(Cl)cc1", "LD50": "> 2000 mg/kg"}
{"structure-as-smiles": "COc1ccc(OCC(=O)COc2ccc(OC)cc2)cc1", "LD50": "6000 mg/kg"}
{"structure-as-smiles": "Cc1cc(OCC(=O)COc2cc(C)c(Cl)c(C)c2)cc(C)c1Cl", "LD50": "> 6000 mg/kg"}
{"structure-as-smiles": "O=C(CSc1ccc(Cl)cc1)CSc1ccc(Cl)cc1", "LD50": "> 3000 mg/kg"}
{"structure-as-smiles": "Cc1cc(Cl)c(OCC(=O)COc2cc(C)c(C)cc2Cl)cc1C", "LD50": "> 2000 mg/kg"}
{"structure-as-smiles": "CCc1ccc(OCC(=O)COc2ccc(CC)cc2)cc1", "LD50": "> 3000 mg/kg"}
